tested on: SF-268; assay: NCI tumour cell line growth inhibition, 48 h
Activity calls are given as the source filed them. Rule as the data show it: active = GI50 up to about 1.1 µM and inactive = higher.
Assay metric: GI50

Recorded GI50, per entry:
Compound	GI50
CC(C)(O)C1CC[C@]2(C)CC[C@]3(C)[C@H](CC[C@@H]4[C@@]5(C)CC[C@H](O)C(C)(C)[C@@H]5CC[C@]43C)[C@@H]12 (some centres not stated)	31 µM (inactive)
COc1ccc(/C=N/NC(=O)CSc2nc(-c3ccccc3)c(-c3ccccc3)[nH]2)cc1OC	50 µM (inactive)
NCCn1ccc(NC(c2ccccc2)(c2ccccc2)c2ccccc2)nc1=O	16.3 µM (inactive)
O=C1C=Cc2noc3cccc1c23	3.15 µM (inactive)
CN(C)Cc1cc(Cl)c(O)c(CN(C)C)c1	> 100 µM (inactive)
COC(=O)CSc1nnc(-c2ccccc2)[nH]1	> 100 µM (inactive)

# input for lookup
Q: Form field: reported GI50 of C=C1CCC2[C@@H](CCC3[C@]2(C)CCC[C@]3(C)C(=O)OC)C1CCO (some centres not stated)
Result: 11.3 µM (inactive)
